# Assay Target: human complement factor D (Homo sapiens, UniProt P00746)
# Construct: purchased R&D Systems 1824-SE
# Sequence (P00746 26-253): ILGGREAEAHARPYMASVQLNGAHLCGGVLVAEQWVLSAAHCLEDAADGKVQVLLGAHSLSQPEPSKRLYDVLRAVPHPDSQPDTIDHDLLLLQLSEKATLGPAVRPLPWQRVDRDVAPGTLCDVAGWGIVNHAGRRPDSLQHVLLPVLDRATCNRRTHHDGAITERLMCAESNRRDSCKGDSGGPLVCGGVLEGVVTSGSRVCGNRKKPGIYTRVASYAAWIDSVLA
# Procedure Summary: In vitro enzyme inhibition (Z-Lys-SBzl/DTNB absorbance assay)
# Format: biochemical
# Condition Summary: Complement Factor D (R&D Systems), substrate Z-Lys-SBzl, A405 nm; read-out: CFD IC50
Recorded IC50 for the following compounds

Compound: NC(=O)c1nn(CC(=O)N2[C@@H]3CC[C@@H](C3)[C@H]2C(=O)Nc2cccc(Cl)c2F)c2cnccc12
Assay Target: human complement factor D (Homo sapiens, UniProt P00746)
IC50: 1000 to 10000 nM

Compound: NC(=O)n1cc(NC(=O)N2[C@@H]3CC[C@@H](C3)[C@H]2C(=O)Nc2cccc(Cl)n2)c2ccccc21
Assay Target: human complement factor D (Homo sapiens, UniProt P00746)
IC50: 100 to 1000 nM

Compound: NC(=O)c1nn(CC(=O)N2CCOC[C@H]2C(=O)Nc2cccc(C(F)(F)F)n2)c2ccccc12
Assay Target: human complement factor D (Homo sapiens, UniProt P00746)
IC50: 1000 to 10000 nM

Compound: CC(=O)c1nn(CC(=O)N2[C@@H]3CC[C@@H](C3)[C@H]2C(=O)Nc2cccc(Cl)n2)c2ccc(Cl)cc12
Assay Target: human complement factor D (Homo sapiens, UniProt P00746)
IC50: 100 to 1000 nM

Compound: NC(=O)n1nc(CC(=O)N2[C@@H]3CC[C@@H](C3)[C@H]2C(=O)NCc2cccc(Cl)c2F)c2ccccc21
Assay Target: human complement factor D (Homo sapiens, UniProt P00746)
IC50: 100 to 1000 nM

Compound: NC(=O)c1nn(CC(=O)N2[C@@H]3CC[C@@H](C3)[C@H]2C(=O)Nc2cccc(C3CC3)n2)c2cc(C3CC3)ccc12
Assay Target: human complement factor D (Homo sapiens, UniProt P00746)
IC50: 1000 to 10000 nM

Compound: NC(=O)c1ccc2c(C(N)=O)nn(CC(=O)N3[C@@H]4CC[C@@H](C4)[C@H]3C(=O)Nc3cccc(Cl)n3)c2c1
Assay Target: human complement factor D (Homo sapiens, UniProt P00746)
IC50: 100 to 1000 nM

Compound: NC(=O)c1nn(CC(=O)N2[C@H]3CC[C@H](CC3)[C@@H]2C(=O)Nc2cccc(Cl)c2F)c2ccccc12
Assay Target: human complement factor D (Homo sapiens, UniProt P00746)
IC50: > 10000 nM

Compound: NC(=O)c1nn(CC(=O)N2[C@@H]3CC[C@@H](C3)[C@H]2C(=O)Nc2cccc(C3CC3)n2)c2ccccc12
Assay Target: human complement factor D (Homo sapiens, UniProt P00746)
IC50: 1000 to 10000 nM

Compound: NC(=O)c1cc(Cl)nc(NC(=O)[C@@H]2[C@H]3CC[C@H](C3)N2C(=O)Cn2nc(C(N)=O)c3ccccc32)c1
Assay Target: human complement factor D (Homo sapiens, UniProt P00746)
IC50: 100 to 1000 nM

Compound: NC(=O)c1nn(CC(=O)N2[C@@H]3CC[C@@H](C3)[C@H]2C(=O)Nc2cncc(Cl)n2)c2ccccc12
Assay Target: human complement factor D (Homo sapiens, UniProt P00746)
IC50: < 100 nM

Compound: CC(=O)c1nn(CC(=O)N2[C@@H]3CC[C@@H](C3)[C@H]2C(=O)Nc2cccc(Cl)n2)c2ccc(Br)cc12
Assay Target: human complement factor D (Homo sapiens, UniProt P00746)
IC50: 100 to 1000 nM

Compound: NC(=O)c1cc(Cl)c(F)c(CNC(=O)[C@@H]2[C@H]3CC[C@H](C3)N2C(=O)Cn2nc(C(N)=O)c3ccccc32)c1
Assay Target: human complement factor D (Homo sapiens, UniProt P00746)
IC50: 1000 to 10000 nM

Compound: NC(=O)c1nn(CC(=O)N2[C@@H]3CC[C@@H](C3)[C@H]2C(=O)Nc2ccc(Cl)c(Cl)n2)c2ccccc12
Assay Target: human complement factor D (Homo sapiens, UniProt P00746)
IC50: 100 to 1000 nM

Compound: N#Cc1cc(Cl)nc(NC(=O)[C@@H]2[C@H]3CC[C@H](C3)N2C(=O)Cn2nc(C(N)=O)c3ccccc32)c1
Assay Target: human complement factor D (Homo sapiens, UniProt P00746)
IC50: 100 to 1000 nM

Compound: NC(=O)c1nn(CC(=O)N2[C@@H]3CC[C@@H](C3)[C@H]2C(=O)NCc2cc(F)cc(Cl)c2)c2ccccc12 [Example 64, 2,2,2-trifluoroacetate]
Assay Target: human complement factor D (Homo sapiens, UniProt P00746)
IC50: 100 to 1000 nM

Compound: NC(=O)c1nn(CC(=O)N2[C@@H]3CC[C@@H](C3)[C@H]2C(=O)NCc2cccc(Cl)c2F)c2ccccc12
Assay Target: human complement factor D (Homo sapiens, UniProt P00746)
IC50: 100 to 1000 nM

Compound: COC(=O)c1cc(Cl)nc(NC(=O)[C@@H]2[C@H]3CC[C@H](C3)N2C(=O)Cn2nc(C(N)=O)c3ccccc32)c1
Assay Target: human complement factor D (Homo sapiens, UniProt P00746)
IC50: 100 to 1000 nM

Compound: O=C(Nc1cccc(Cl)n1)[C@@H]1[C@H]2CC[C@H](C2)N1C(=O)Cn1nc(C(=O)N2CCC2)c2ccccc21
Assay Target: human complement factor D (Homo sapiens, UniProt P00746)
IC50: > 10000 nM

Compound: CC(=O)c1nn(CC(=O)N2[C@@H]3CC[C@@H](C3)[C@H]2C(=O)Nc2cccc(Cl)n2)c2ccc(F)cc12
Assay Target: human complement factor D (Homo sapiens, UniProt P00746)
IC50: 100 to 1000 nM

Compound: NC(=O)c1nn(CC(=O)N2[C@H](C(=O)Nc3cncc(Cl)c3)C[C@@H]3CCC[C@@H]32)c2ccccc12
Assay Target: human complement factor D (Homo sapiens, UniProt P00746)
IC50: 1000 to 10000 nM

Compound: NC(=O)c1ccc2c(c1)c(C(N)=O)nn2CC(=O)N1[C@@H]2CC[C@@H](C2)[C@H]1C(=O)Nc1cccc(Cl)n1
Assay Target: human complement factor D (Homo sapiens, UniProt P00746)
IC50: 100 to 1000 nM

Compound: NC(=O)c1nn(CC(=O)N2[C@@H]3CC[C@@H](C3)[C@H]2C(=O)NCc2c(C(=O)O)ccc(Cl)c2F)c2ccccc12
Assay Target: human complement factor D (Homo sapiens, UniProt P00746)
IC50: 1000 to 10000 nM

Compound: NC(=O)c1nn(CC(=O)N2[C@@H]3CC[C@@H](C3)[C@H]2C(=O)NC(CCO)c2cccc(Cl)c2F)c2ccccc12 (stereo partly shown)
Assay Target: human complement factor D (Homo sapiens, UniProt P00746)
IC50: 1000 to 10000 nM

Compound: NC(=O)Cc1nn(CC(=O)N2[C@@H]3CC[C@@H](C3)[C@H]2C(=O)Nc2cccc(Cl)n2)c2ccccc12
Assay Target: human complement factor D (Homo sapiens, UniProt P00746)
IC50: 1000 to 10000 nM
